IC50 by entry:
- tgt: Aldo-keto reductase family 1 member B1 (Rattus norvegicus)

{"columns": ["molecule", "tgt", "IC50"],
 "data": [
  ["C=C1CC[C@]2(C(=O)O)CC[C@]3(C)C(=CC[C@@H]4[C@@]5(C)CC[C@H](O)[C@@](C)(CO)[C@@H]5CC[C@]43C)[C@@H]2C1", "Aldo-keto reductase family 1 member B1 (Rattus norvegicus)", "28.8 µM"],
  ["O=C(O)CC1(CC(=O)O)CCCC1", "Aldo-keto reductase family 1 member B1 (Rattus norvegicus)", "31.8 µM"],
  ["C[C@@]12CC(=O)[C@H]3C[C@]1(O)O[C@H](O2)[C@@H]3COC(=O)c1ccccc1", "Aldo-keto reductase family 1 member B1 (Rattus norvegicus)", "> 50 µM"],
  ["CC1(C)[C@@H](O)CC[C@]2(C)[C@H]3C=CC4=C(O)C(=O)C(=O)[C@@]4(C)[C@]3(C)CC[C@@H]12", "Aldo-keto reductase family 1 member B1 (Rattus norvegicus)", "11.4 µM"],
  ["COc1ccc(C(C)=O)c(O[C@@H]2O[C@H](CO[C@@H]3OC[C@H](O)[C@H](O)[C@H]3O)[C@@H](O)[C@H](O)[C@H]2O)c1 [PAEONOLIDE]", "Aldo-keto reductase family 1 member B1 (Rattus norvegicus)", "> 50 µM"],
  ["C[C@@]12C[C@@]3(O)O[C@@H](O1)[C@]1(COC(=O)c4ccc(O)cc4)[C@H]3C[C@@]12O[C@@H]1O[C@H](CO)[C@@H](O)[C@H](O)[C@H]1O", "Aldo-keto reductase family 1 member B1 (Rattus norvegicus)", "> 50 µM"],
  ["Cc1cc2c(cc1O)[C@@H](CO)CO2", "Aldo-keto reductase family 1 member B1 (Rattus norvegicus)", "> 50 µM"],
  ["C[C@@]12C[C@@]3(O)OC(O1)[C@]1(COC(=O)c4ccc(O)cc4)[C@@H]3C[C@@]21O[C@@H]1O[C@H](COC(=O)c2ccccc2)[C@@H](O)[C@H](O)[C@H]1O", "Aldo-keto reductase family 1 member B1 (Rattus norvegicus)", "> 50 µM"],
  ["C[C@@]12C[C@@]3(O)OC(O1)[C@]1(COC(=O)c4ccccc4)[C@@H]3C[C@@]21O[C@@H]1O[C@H](COC(=O)c2ccc(O)cc2)[C@@H](O)[C@H](O)[C@H]1O [NUDANPINOSIDE H]", "Aldo-keto reductase family 1 member B1 (Rattus norvegicus)", "> 50 µM"]
]}

Recorded values, source ChEMBL document CHEMBL1154220.
